- Target Or System: full-length beta-Catenin (Uniprot ID P35222) (Homo sapiens (Human)) (UniProt P35222)
- Sequence (P35222 2-781 limits assumed): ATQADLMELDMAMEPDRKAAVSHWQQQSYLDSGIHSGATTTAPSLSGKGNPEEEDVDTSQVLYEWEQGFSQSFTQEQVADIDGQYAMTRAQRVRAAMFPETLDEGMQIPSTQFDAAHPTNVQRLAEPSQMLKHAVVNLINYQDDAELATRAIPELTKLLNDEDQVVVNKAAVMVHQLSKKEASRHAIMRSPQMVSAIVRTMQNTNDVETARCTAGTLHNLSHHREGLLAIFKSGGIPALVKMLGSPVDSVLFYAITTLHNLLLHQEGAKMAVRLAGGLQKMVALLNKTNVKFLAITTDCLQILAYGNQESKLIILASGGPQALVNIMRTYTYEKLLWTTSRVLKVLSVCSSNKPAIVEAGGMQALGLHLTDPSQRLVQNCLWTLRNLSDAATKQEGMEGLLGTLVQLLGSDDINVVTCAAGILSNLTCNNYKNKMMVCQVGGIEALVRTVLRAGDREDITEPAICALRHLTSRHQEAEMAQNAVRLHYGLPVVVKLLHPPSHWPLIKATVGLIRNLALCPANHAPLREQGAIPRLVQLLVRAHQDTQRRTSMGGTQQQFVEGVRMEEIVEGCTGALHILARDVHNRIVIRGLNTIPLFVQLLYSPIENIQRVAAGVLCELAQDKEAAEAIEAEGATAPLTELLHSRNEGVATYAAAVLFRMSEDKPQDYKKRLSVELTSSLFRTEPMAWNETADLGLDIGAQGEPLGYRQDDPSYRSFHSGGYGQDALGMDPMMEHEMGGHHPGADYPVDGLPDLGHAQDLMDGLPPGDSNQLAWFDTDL
- Assay Details: fluorescence polarization competition; full-length beta-catenin, 5FAM-TCF4(10-53) probe as competitor
Starred links: 1 amine or outer side, 2 acyl side, 3 side chain; linkers in the order of their positions; H or OH if unused. Positions of bridges follow the written chain, without caps; N, C: chain ends. Non-standard residues stand in square brackets, D forms with d. Primed or numbered codes have the meaning given here. *: point of attachment. PyrS2″ = (S)-3-amino-1-((pent-4-en-1-yloxy)carbonyl)pyrrolidine-3-carboxylic acid (stapling residue), C=CCCCOC(=O)N1CC[C@@](N[*:1])(C(=O)[*:2])C1; B5(23) = 2-amino-2-(pent-4-en-1-yl)hept-6-enoic acid (2,2-bis(4-pentenyl)glycine), stitching residue, C=CCCCC(CCCC=C)(N[*:1])C(=O)[*:2]; B5(4) = 2,2-bis(4-pentenyl)glycine = 2-amino-2-(pent-4-en-1-yl)hept-6-enoic acid (stitching residue), C=CCCCC(CCCC=C)(N[*:1])C(=O)[*:2]; B5(5) = 2,2-bis(4-pentenyl)glycine, 2-amino-2-(pent-4-en-1-yl)hept-6-enoic acid (stitching residue), C=CCCCC(CCCC=C)(N[*:1])C(=O)[*:2]; TfeGA = (S)-2-amino-3-((carboxymethyl)(2,2,2-trifluoroethyl)amino)propanoic acid, O=C([C@H](CN(CC(=O)[*:3])CC(F)(F)F)N[*:1])[*:2]; PyrS2 = (S)-3-amino-1-((pent-4-en-1-yloxy)carbonyl)pyrrolidine-3-carboxylic acid, C=CCCCOC(=O)N1CC[C@@](N[*:1])(C(=O)[*:2])C1; (Pip)GlnR = (S)-2-amino-5-oxo-5-(piperidin-1-yl)pentanoic acid, O=C(CC[C@H](N[*:1])C(=O)[*:2])N1CCCCC1; B5(3) = 2,2-bis(4-pentenyl)glycine (stitching residue), C=CCCCC(CCCC=C)(N[*:1])C(=O)[*:2]; Phe(3-COOH) = N[C@@H](Cc1cccc(C(=O)O)c1)C(=O)O; Phe(2-Cl) = N[C@@H](Cc1ccccc1Cl)C(=O)O; 1Nal = N[C@@H](Cc1cccc2ccccc12)C(=O)O; Bta = N[C@@H](Cc1csc2ccccc12)C(=O)O; αAllylPro = C=CC[C@@]1(C(=O)O)CCCN1; tBuAla = CC(C)(C)C[C@H](N)C(=O)O; 3Thi = N[C@@H](Cc1ccsc1)C(=O)O; hSer = N[C@@H](CCO)C(=O)O; Abu = CC[C@H](N)C(=O)O; Alaol = C[C@@H](CO)N*; Aib = CC(C)(N)C(=O)O
Measured Quantity: IC50 (nM)

Guide cases for IC50, answers given:
1. Ac-[αAllylPro]D[tBuAla][B5(3)]D[TfeGA]AAFL[PyrS2″][3Thi][Bta][(NHEt)GlnR]A-NH2 (staple 1-4, 4-11) [Ac-PL3-Asp-Npg-B5-Asp-TfeGA-Ala-Ala-Phe-Leu-PyrS2-3Thi-BztA-[NHEt]GlnR-Ala-NH2] ... 14
2. Ac-[αAllylPro]D[tBuAla][B5(5)]D[Phe(3-COOH)][Aib]AF[Abu][PyrS2″][3Thi][Bta][(Pip)GlnR]A-NH2 (staple 1-4, 4-11) [Ac-PL3-Asp-Npg-B5-Asp-3COOHF-Aib-Ala-Phe-Abu-PyrS2-3Thi-BztA-[Pip]GlnR-Ala-NH2] ... 7
3. Ac-[αAllylPro]D[tBuAla][B5(4)]NLAAFN[PyrS2][3Thi][Bta]Q-NH2 (staple 1-4, 4-11) [I-1570] ... 1340
4. Ac-[αAllylPro]D[tBuAla][B5(23)]NNAAFL[PyrS2][3Thi][Bta]Q-NH2 (staple 1-4, 4-11) [I-1557] ... 342
5. Ac-[αAllylPro]D[tBuAla][B5(4)]D[TfeGA]AAFT[PyrS2″][Phe(2-Cl)][Bta]-Alaol (staple 1-4, 4-11) [I-1242] ... 30
6. Ac-[αAllylPro]D[tBuAla][B5(4)]TNAAFN[PyrS2][3Thi][Bta]Q-NH2 (staple 1-4, 4-11) [I-1559] ... 9680
7. Ac-[αAllylPro]D[tBuAla][B5(4)]QNAAFN[PyrS2][3Thi][Bta]Q-NH2 (staple 1-4, 4-11) [I-1560] ... 368
8. Ac-[αAllylPro][hSer][tBuAla][B5(5)]DDAAFL[PyrS2″][3Thi][Bta]Q-NH2 (staple 1-4, 4-11) [I-1229] ... 134
9. Ac-[αAllylPro]D[tBuAla][B5(3)]D[TfeGA]AAFL[PyrS2″][3Thi][Bta][Me2Gln]A-NH2 (staple 1-4, 4-11) [Ac-PL3-Asp-Npg-B5-Asp-TfeGA-Ala-Ala-Phe-Leu-PyrS2-3Thi-BztA-Me2Gln-Ala-NH2] ... 10
10. Ac-[αAllylPro]D[tBuAla][B5(5)]DDAAFT[PyrS2″][3Thi][1Nal]Q-NH2 (staple 1-4, 4-11) [I-1232] ... 31

a: Ac-[αAllylPro]D[tBuAla][B5(3)]D[Phe(3-COOH)][Aib]AF[Abu][PyrS2″][3Thi][Bta][Me2Gln]A-NH2 (staple 1-4, 4-11) [Ac-PL3-Asp-Npg-B5-Asp-3COOHF-Aib-Ala-Phe-Abu-PyrS2-3Thi-BztA-Me2Gln-Ala-NH2]
b: Ac-[αAllylPro]D[tBuAla][B5(23)]NQAAFN[PyrS2][3Thi][Bta]Q-NH2 (staple 1-4, 4-11; not fully specified; printed as Ac-PL3-Asp-Npg-B5-Asn-Gln-Ala-Ala-Phe-Asn-PyrS2-3Thi-BztA-Gln-NH2) [I-1567]
Which value of IC50 is numerically greater: that of a or that of b ? Write down the label attached to your selection.
b
(b: 182 nM, a: 7 nM)
